meta.source: paper PMC6308302

Assay: Stability tests in rat plasma (QC samples, HPLC-MS)
Conditions: 24h in auto-sampler vials, spiked 400 ng/mL, n=5
Property: Stability: Measured; scope: individual compounds

Some compounds with recorded Stability: Measured:
[[record]]
compound = "CC(C)=CCC[C@](C)(O[C@@H]1O[C@H](CO)[C@@H](O)[C@H](O)[C@H]1O)[C@H]1CC[C@]2(C)[C@@H]1[C@H](O)C[C@@H]1[C@@]3(C)CC[C@H](O[C@@H]4O[C@H](CO)[C@@H](O)[C@H](O)[C@H]4O[C@@H]4O[C@H](CO)[C@@H](O)[C@H](O)[C@H]4O)C(C)(C)[C@@H]3CC[C@]12C [Rd, ginsenoside Rd]"
recorded_value = "406.43 ± 27.13 ng/mL"

[[record]]
compound = "C[C@H]1COC2=C1C(=O)C(=O)c1c2ccc2c1CCCC2(C)C [CTS, cryptotanshinone]"
recorded_value = "478.43 ± 27.22 ng/mL"

[[record]]
compound = "Cc1coc2c1C(=O)C(=O)c1c-2ccc2c1CCCC2(C)C [TS IIA, tanshinone (TS) IIA]"
recorded_value = "464.77 ± 53.87 ng/mL"


Now consider a different compound.
Which measured Stability: Measured value corresponds to CC(C)=CCC[C@](C)(O[C@@H]1O[C@H](CO)[C@@H](O)[C@H](O)[C@H]1O)[C@H]1CC[C@]2(C)[C@@H]1[C@H](O)C[C@@H]1[C@@]3(C)CC[C@H](O)C(C)(C)[C@@H]3[C@@H](O[C@@H]3O[C@H](CO)[C@@H](O)[C@H](O)[C@H]3O[C@@H]3OC[C@@H](O)[C@H](O)[C@H]3O)C[C@]12C [R1, notoginsenoside R1] ?
395.76 ± 7.32 ng/mL

----------
Test: Multiple component PK study in rat plasma after p.o. GDDP (HPLC-MS)
Conditions: Sprague-Dawley, rat, plasma, po, 0.8 g/kg, t1/2 β (fast / slow elimination type), rats, GDDP 0.4 and 0.8 g/kg p.o.; classification
value_kind: half-life

Some compounds with recorded half-life:
[[record]]
compound = "CC(C)=CCC[C@](C)(O[C@@H]1O[C@H](CO)[C@@H](O)[C@H](O)[C@H]1O)[C@H]1CC[C@]2(C)[C@@H]1[C@H](O)C[C@@H]1[C@@]3(C)CC[C@H](O[C@@H]4O[C@H](CO)[C@@H](O)[C@H](O)[C@H]4O[C@@H]4O[C@H](CO)[C@@H](O)[C@H](O)[C@H]4O)C(C)(C)[C@@H]3CC[C@]12C [Rd, ginsenoside Rd]"
recorded_value = "> 2.6 h"

[[record]]
compound = "Cc1coc2c1C(=O)C(=O)c1c-2ccc2c1CCCC2(C)C [TS IIA, tanshinone (TS) IIA]"
recorded_value = "> 2.6 h"

[[record]]
compound = "CC(C)=CCC[C@](C)(O[C@@H]1O[C@H](CO)[C@@H](O)[C@H](O)[C@H]1O)[C@H]1CC[C@]2(C)[C@@H]1[C@H](O)C[C@@H]1[C@@]3(C)CC[C@H](O)C(C)(C)[C@@H]3[C@@H](O[C@@H]3O[C@H](CO)[C@@H](O)[C@H](O)[C@H]3O[C@@H]3OC[C@@H](O)[C@H](O)[C@H]3O)C[C@]12C [R1, notoginsenoside R1]"
recorded_value = "< 2 h"


Now consider a different compound.
Which measured half-life value corresponds to Cc1coc2c1C(=O)C(=O)c1c-2ccc2c(C)cccc12 [TS I, tanshinone I] ?
> 2.6 h

----------
Assay: Stability tests in rat plasma (QC samples, HPLC-MS)
Conditions: Placing plasma for 6h at 4°C, spiked 1600 ng/mL, n=5
value_kind: Stability: Measured (ng/mL)
Write the answer as a number in ng/mL, unit excluded.

Some molecules with recorded Stability: Measured:
[[record]]
molecule = "Cc1coc2c1C(=O)C(=O)c1c-2ccc2c(C)cccc12 [TS I, tanshinone I]"
value_kind = "Stability: Measured"
recorded_value = 1771.82

[[record]]
molecule = "CC(C)=CCC[C@](C)(O[C@@H]1O[C@H](CO)[C@@H](O)[C@H](O)[C@H]1O)[C@H]1CC[C@]2(C)[C@@H]1[C@H](O)C[C@@H]1[C@@]3(C)CC[C@H](O)C(C)(C)[C@@H]3[C@@H](O[C@@H]3O[C@H](CO)[C@@H](O)[C@H](O)[C@H]3O[C@@H]3OC[C@@H](O)[C@H](O)[C@H]3O)C[C@]12C [R1, notoginsenoside R1]"
value_kind = "Stability: Measured"
recorded_value = 1698.54

[[record]]
molecule = "CC(C)=CCC[C@](C)(O[C@@H]1O[C@H](CO[C@@H]2O[C@H](CO)[C@@H](O)[C@H](O)[C@H]2O)[C@@H](O)[C@H](O)[C@H]1O)[C@H]1CC[C@]2(C)[C@@H]1[C@H](O)C[C@@H]1[C@@]3(C)CC[C@H](O[C@@H]4O[C@H](CO)[C@@H](O)[C@H](O)[C@H]4O[C@@H]4O[C@H](CO)[C@@H](O)[C@H](O)[C@H]4O)C(C)(C)[C@@H]3CC[C@]12C [Rb1, ginsenoside Rb1]"
value_kind = "Stability: Measured"
recorded_value = 1647.48


Which measured Stability: Measured value corresponds to Cc1coc2c1C(=O)C(=O)c1c-2ccc2c1CCCC2(C)C [TS IIA, tanshinone (TS) IIA] ?
1933.47

----------
Experiment: Stability tests in rat plasma (QC samples, HPLC-MS)
Details: Placing plasma for 6h at 4°C, spiked 2 ng/mL, n=5
Property: Stability: Measured; scope: individual molecules
Write the answer as a number in ng/mL, unit excluded.

[[record]]
molecule = "CC(C)=CCC[C@](C)(O[C@@H]1O[C@H](CO)[C@@H](O)[C@H](O)[C@H]1O)[C@H]1CC[C@]2(C)[C@@H]1[C@H](O)C[C@@H]1[C@@]3(C)CC[C@H](O[C@@H]4O[C@H](CO)[C@@H](O)[C@H](O)[C@H]4O[C@@H]4O[C@H](CO)[C@@H](O)[C@H](O)[C@H]4O)C(C)(C)[C@@H]3CC[C@]12C [Rd, ginsenoside Rd]"
recorded_value = 1.65

[[record]]
molecule = "Cc1coc2c1C(=O)C(=O)c1c-2ccc2c1CCCC2(C)C [TS IIA, tanshinone (TS) IIA]"
recorded_value = 2.14

[[record]]
molecule = "CC(C)=CCC[C@](C)(O[C@@H]1O[C@H](CO)[C@@H](O)[C@H](O)[C@H]1O)[C@H]1CC[C@]2(C)[C@@H]1[C@H](O)C[C@@H]1[C@@]3(C)CC[C@H](O)C(C)(C)[C@@H]3[C@@H](O[C@@H]3O[C@H](CO)[C@@H](O)[C@H](O)[C@H]3O[C@@H]3OC[C@@H](O)[C@H](O)[C@H]3O)C[C@]12C [R1, notoginsenoside R1]"
recorded_value = 1.75


Which measured Stability: Measured value corresponds to CC(C)=CCC[C@](C)(O[C@@H]1O[C@H](CO[C@@H]2O[C@H](CO)[C@@H](O)[C@H](O)[C@H]2O)[C@@H](O)[C@H](O)[C@H]1O)[C@H]1CC[C@]2(C)[C@@H]1[C@H](O)C[C@@H]1[C@@]3(C)CC[C@H](O[C@@H]4O[C@H](CO)[C@@H](O)[C@H](O)[C@H]4O[C@@H]4O[C@H](CO)[C@@H](O)[C@H](O)[C@H]4O)C(C)(C)[C@@H]3CC[C@]12C [Rb1, ginsenoside Rb1] ?
1.66

Another molecule: C[C@H]1COC2=C1C(=O)C(=O)c1c2ccc2c1CCCC2(C)C [CTS, cryptotanshinone]
1.79

Another molecule: Cc1cccc2c3c(ccc12)C1=C(C(=O)C3=O)[C@@H](C)CO1 [DHTS I, dihydrotanshinone I]
2.23

Another molecule: Cc1coc2c1C(=O)C(=O)c1c-2ccc2c(C)cccc12 [TS I, tanshinone I]
2.22

----------
Assay: Stability tests in rat plasma (QC samples, HPLC-MS)
Details: three freeze-thaw cycles, rat plasma, spiked 1600 ng/mL, n=5
value_kind: Stability: RE (%)
Write the answer as a number in %, unit excluded.

[[record]]
compound = "C[C@H]1COC2=C1C(=O)C(=O)c1c2ccc2c1CCCC2(C)C [CTS, cryptotanshinone]"
recorded_value = 16.96

[[record]]
compound = "CC(C)=CCC[C@](C)(O[C@@H]1O[C@H](CO)[C@@H](O)[C@H](O)[C@H]1O)[C@H]1CC[C@]2(C)[C@@H]1[C@H](O)C[C@@H]1[C@@]3(C)CC[C@H](O)C(C)(C)[C@@H]3[C@@H](O[C@@H]3O[C@H](CO)[C@@H](O)[C@H](O)[C@H]3O[C@@H]3OC[C@@H](O)[C@H](O)[C@H]3O)C[C@]12C [R1, notoginsenoside R1]"
recorded_value = 11.50

[[record]]
compound = "Cc1coc2c1C(=O)C(=O)c1c-2ccc2c1CCCC2(C)C [TS IIA, tanshinone (TS) IIA]"
recorded_value = 14.40


Now consider a different compound.
Which measured Stability: RE value corresponds to CC(C)=CCC[C@](C)(O[C@@H]1O[C@H](CO[C@@H]2O[C@H](CO)[C@@H](O)[C@H](O)[C@H]2O)[C@@H](O)[C@H](O)[C@H]1O)[C@H]1CC[C@]2(C)[C@@H]1[C@H](O)C[C@@H]1[C@@]3(C)CC[C@H](O[C@@H]4O[C@H](CO)[C@@H](O)[C@H](O)[C@H]4O[C@@H]4O[C@H](CO)[C@@H](O)[C@H](O)[C@H]4O)C(C)(C)[C@@H]3CC[C@]12C [Rb1, ginsenoside Rb1] ?
0.12
